Assay: Pharmacokinetics in xenograft model
Type: in vivo, SCID mice
Conditions: CB17 SCID, mouse, plasma, po, 100 mg/kg, Tmax, 100 mg/kg once daily oral, day 14
property: Tmax (min)
Give bare numbers, in min.

Problem: Item under review: CC[C@H](Nc1ncnc2[nH]cnc12)c1nc2cccc(F)c2c(=O)n1-c1ccccc1 . Reported Tmax?
Solution: 24

----------
Experiment: Pharmacokinetics in xenograft model
Format: in vivo, SCID mice
Conditions: CB17 SCID, mouse, plasma, po, 100 mg/kg, T1/2, 100 mg/kg once daily oral, day 1
property: half-life
Answer shape: numeric part, then the unit.

Problem: Item under review: CC[C@H](Nc1ncnc2[nH]cnc12)c1nc2cccc(F)c2c(=O)n1-c1ccccc1 . Reported half-life?
Solution: 3.4 h

----------
Target: PI3Kγ (Mus musculus)
Sequence (Q9JHG7 whole entry): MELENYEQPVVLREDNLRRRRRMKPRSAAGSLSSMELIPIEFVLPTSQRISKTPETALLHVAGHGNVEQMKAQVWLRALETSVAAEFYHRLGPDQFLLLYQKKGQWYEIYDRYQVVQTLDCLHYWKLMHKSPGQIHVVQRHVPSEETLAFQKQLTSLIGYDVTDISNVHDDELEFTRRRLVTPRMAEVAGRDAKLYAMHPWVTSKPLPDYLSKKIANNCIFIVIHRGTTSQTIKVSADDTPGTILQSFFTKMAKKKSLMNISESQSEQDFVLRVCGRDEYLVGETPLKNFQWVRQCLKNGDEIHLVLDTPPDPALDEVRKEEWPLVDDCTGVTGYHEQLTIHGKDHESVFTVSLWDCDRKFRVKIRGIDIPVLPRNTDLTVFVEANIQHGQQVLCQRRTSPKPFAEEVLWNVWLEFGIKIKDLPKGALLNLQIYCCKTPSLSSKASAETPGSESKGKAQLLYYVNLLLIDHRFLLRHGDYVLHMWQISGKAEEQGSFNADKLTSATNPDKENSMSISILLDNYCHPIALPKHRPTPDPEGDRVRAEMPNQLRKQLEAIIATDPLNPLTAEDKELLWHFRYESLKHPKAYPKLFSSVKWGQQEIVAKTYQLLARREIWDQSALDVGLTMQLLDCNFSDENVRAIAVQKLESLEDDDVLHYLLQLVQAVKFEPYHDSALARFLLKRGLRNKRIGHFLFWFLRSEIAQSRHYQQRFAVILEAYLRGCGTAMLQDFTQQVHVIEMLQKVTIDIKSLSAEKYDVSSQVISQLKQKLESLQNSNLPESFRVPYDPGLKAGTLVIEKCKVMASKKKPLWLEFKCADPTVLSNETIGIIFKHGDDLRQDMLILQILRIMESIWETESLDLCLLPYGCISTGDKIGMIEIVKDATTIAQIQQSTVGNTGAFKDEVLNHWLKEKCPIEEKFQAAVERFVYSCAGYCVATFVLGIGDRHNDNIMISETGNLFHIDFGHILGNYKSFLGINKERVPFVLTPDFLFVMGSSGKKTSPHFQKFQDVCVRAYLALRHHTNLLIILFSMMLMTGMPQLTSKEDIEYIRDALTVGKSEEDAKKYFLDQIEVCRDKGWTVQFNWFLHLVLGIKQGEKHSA
Experiment: Cell-based pAKT AlphaLISA, C5a stimulated RAW264.7 cells
property: pIC50
One number for each entry, as −log10 of the molar value.

Problem: Observed pIC50 on PI3Kγ (Mus musculus) for CC[C@H](Nc1ncnc2[nH]cnc12)c1nc2cccc(F)c2c(=O)n1-c1ccccc1 , please.
Solution: 5.95

----------
Assay: Pharmacokinetics in xenograft model
Format: in vivo, SCID mice
Conditions: CB17 SCID, mouse, plasma, po, 200 mg/kg, Cmax, 200 mg/kg once daily oral, day 14
property: Cmax (µM)
Give bare numbers, in µM.

Problem: Item under review: CC[C@H](Nc1ncnc2[nH]cnc12)c1nc2cccc(F)c2c(=O)n1-c1ccccc1 . Reported Cmax?
Solution: 8.09

The values you see were collected from paper PMC7586065.
